These measurements were taken from patent US20120190701A1.

- TEST_TARGET: Human recombinant renin (Homo sapiens, UniProt P00797)
- Sequence (P00797 67-406): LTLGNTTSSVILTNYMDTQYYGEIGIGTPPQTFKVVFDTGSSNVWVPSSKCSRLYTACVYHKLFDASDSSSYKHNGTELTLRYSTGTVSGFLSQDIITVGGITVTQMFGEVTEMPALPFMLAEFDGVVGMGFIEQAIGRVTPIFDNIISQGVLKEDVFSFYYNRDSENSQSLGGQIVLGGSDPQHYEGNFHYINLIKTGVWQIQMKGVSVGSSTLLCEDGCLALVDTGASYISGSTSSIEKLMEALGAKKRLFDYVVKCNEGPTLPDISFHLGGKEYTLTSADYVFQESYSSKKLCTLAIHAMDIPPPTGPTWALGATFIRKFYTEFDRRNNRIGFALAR
- EXPERIMENTAL_DETAILS: Inhibition of human recombinant renin (buffer assay, quenched fluorescent peptide)
- ASSAY_SETUP: buffer: 50 mM MOPS pH 7.4, 100 mM NaCl, 0.002% Tween 20; 37° C., 3 hours
EXPERIMENTAL_READOUT: IC50 (nM)

Below are worked cases with known answers.
COCCc1cc(C)c(C)c(CN(C(=O)[C@H]2CNCC[C@@]23OCc2cc(F)c(F)cc23)C2CC2)c1 (relative stereo): 0.1
COCCCc1cc(CCCOC)c(Cl)c(CN(C(=O)[C@H]2CNCC[C@@]23OCc2cc(F)c(F)cc23)C2CC2)c1 (relative stereo): 0.1

(I) COCCCc1cc(CN(C(=O)[C@H]2CNCC[C@@]23OCc2cc(F)c(F)cc23)C2CC2)c2ccccc2n1 (relative stereo)
(II) COCCCc1cc(CN(C(=O)[C@H]2CNCC[C@@]23OCc2cc(F)c(F)cc23)C2CC2)c2ncccc2c1 (relative stereo)
(III) O=C([C@H]1CNCC[C@@]12OCc1cc(F)c(F)cc12)N(Cc1c[nH]c2cccc(F)c12)C1CC1 (relative stereo)
Let's sort these by IC50, smallest first. Go ahead? Could you list the labels in the order requested?
II, I, III

====

- TEST_TARGET: recombinant renin in human plasma (Homo sapiens)
- EXPERIMENTAL_DETAILS: Inhibition of renin in human plasma (quenched fluorescent peptide)
- ASSAY_SETUP: human EDTA plasma with 1 nM recombinant renin added; 37° C., 1 hour
pIC50: −log10 of the molar value.
EXPERIMENTAL_READOUT: pIC50

COCCCc1cc(CN(C(=O)[C@H]2CNCC[C@@]23OCc2cc(F)c(F)cc23)C2CC2)c2ncccc2c1 (relative stereo) [Example 54]: 8.46
COCCCc1cc(CN(C(=O)[C@H]2CNCC[C@@]23OCc2cc(F)c(F)cc23)C2CC2)c2ccccc2n1 (relative stereo) [Example 48]: 8.64
O=C([C@H]1CNCC[C@@]12OCc1cc(F)c(F)cc12)N(Cc1c[nH]c2cccc(F)c12)C1CC1 (relative stereo) [Example 56]: 8.35

(a) COCCc1cc(C)c(C)c(CN(C(=O)[C@H]2CNCC[C@@]23OCc2cc(F)c(F)cc23)C2CC2)c1 (relative stereo) [Example 45]
(b) COCCCc1cc(CCCOC)c(Cl)c(CN(C(=O)[C@H]2CNCC[C@@]23OCc2cc(F)c(F)cc23)C2CC2)c1 (relative stereo) [Example 53]
Pick one: a or b . Which has the bigger pIC50 number? Mark your selection by writing its label.
a
